biological target: CDK2 (human); test: Cell-Based Assay; conditions: rko
pIC50: −log10 of the molar value.
reportedMetric: pIC50

1. CN(C)S(=O)(=O)c1ccc(N/C=C2\C(=O)Nc3ccc(-c4cnco4)cc32)cc1 5.52
2. CNS(=O)(=O)Cc1ccc(NN=C2C(=O)Nc3cc(C)c(O)c(C)c32)cc1 6.52
3. NS(=O)(=O)c1ccc(NN=C2C(=O)Nc3ccc(-c4cnco4)cc32)cc1 6.10

---

target: CDK2 (human); experiment: Cell-Based Assay; details: hdf-3
// values below are reported IC50
reportedMetric: IC50 (µM)

compound	tgt	outputUnit	measuredValue
NS(=O)(=O)c1ccc(NN=C2C(=O)Nc3ccc(-c4cnco4)cc32)cc1	CDK2 (human)	µM	0.8
CCC(C)Cc1cccc2c1C(=NNc1ccc(S(N)(=O)=O)cc1)C(=O)N2 (stereo not given)	CDK2 (human)	µM	3.05
CNS(=O)(=O)Cc1ccc(NN=C2C(=O)Nc3ccc4ncccc4c32)cc1	CDK2 (human)	µM	3.05
CS(=O)(=O)Cc1ccc(N/C=C2\C(=O)Nc3ccc4ncsc4c32)cc1	CDK2 (human)	µM	3.05
CNS(=O)(=O)Cc1ccc(NN=C2C(=O)Nc3cc(C)c(O)c(C)c32)cc1	CDK2 (human)	µM	3.05

---

target: CDK2 (human) (UniProt P24941); assay: Enzyme Assay

compound	tgt	outputUnit	IC50
NS(=O)(=O)c1ccc(NN=C2C(=O)Nc3ccc(-c4cnco4)cc32)cc1	CDK2 (human) (UniProt P24941)	nM	5.5
CNS(=O)(=O)Cc1ccc(NN=C2C(=O)Nc3ccc4ncccc4c32)cc1	CDK2 (human) (UniProt P24941)	nM	5.5
CCC(C)Cc1cccc2c1C(=NNc1ccc(S(N)(=O)=O)cc1)C(=O)N2 (configuration not stated)	CDK2 (human) (UniProt P24941)	nM	5.5
CS(=O)(=O)Cc1ccc(N/C=C2\C(=O)Nc3ccc4ncsc4c32)cc1	CDK2 (human) (UniProt P24941)	nM	30.5
O=C1Nc2ccc3ncsc3c2/C1=C/Nc1ccc2nn[nH]c2c1	CDK2 (human) (UniProt P24941)	nM	30.5
CNS(=O)(=O)Cc1ccc(NN=C2C(=O)Nc3cc(C)c(O)c(C)c32)cc1	CDK2 (human) (UniProt P24941)	nM	75.5
CN(C)S(=O)(=O)c1ccc(N/C=C2\C(=O)Nc3ccc(-c4cnco4)cc32)cc1	CDK2 (human) (UniProt P24941)	nM	5.5

---

molecular target: CDK2 (human) (UniProt P24941); experiment: Cell-Based Assay; conditions: rko

molecule	IC50 [µM]
CNS(=O)(=O)Cc1ccc(NN=C2C(=O)Nc3cc(C)c(O)c(C)c32)cc1	0.3
CS(=O)(=O)Cc1ccc(N/C=C2\C(=O)Nc3ccc4ncsc4c32)cc1	3.05
CN(C)S(=O)(=O)c1ccc(N/C=C2\C(=O)Nc3ccc(-c4cnco4)cc32)cc1	3.05
NS(=O)(=O)c1ccc(NN=C2C(=O)Nc3ccc(-c4cnco4)cc32)cc1	0.8
CCC(C)Cc1cccc2c1C(=NNc1ccc(S(N)(=O)=O)cc1)C(=O)N2 (stereo unspecified)	3.05
CNS(=O)(=O)Cc1ccc(NN=C2C(=O)Nc3ccc4ncccc4c32)cc1	3.05

---

biological target: CDK2 (human) (UniProt P24941); test: Cell-Based Assay; conditions: mda-mb-468
reportedMetric: IC50

1) O=C1Nc2ccc3ncsc3c2/C1=C/Nc1ccc2nn[nH]c2c1 3.05 µM
2) CN(C)S(=O)(=O)c1ccc(N/C=C2/C(=O)Nc3ccc(-c4cnco4)cc32)cc1 > 5 µM
